# assay.info: Terminal half life in B6 mouse at 25 mg/kg, ip by UV-HPLC analysis
# Format: ADME, organism-based
# details: in vivo, read-out: beta t1/2 (converted)

compound	half-life
O=C(Nc1cccc(C(=O)c2ccc3c(/C=C/c4ccccn4)n[nH]c3c2)c1)c1ccccc1	5 h
C/C=C/C(=O)Nc1cccc(C(=O)c2ccc3c(/C=C/c4ccccn4)n[nH]c3c2)c1	1.7 h
O=C(Nc1cc(Nc2ccc3c(/C=C/c4ccccc4)n[nH]c3c2)ccc1F)c1ccccc1	19.9 h
O=C(Nc1cccc(C(=O)c2ccc3c(-c4nc5ccccc5[nH]4)n[nH]c3c2)c1)c1ccccc1	3 h
O=C(Nc1cccc(Cl)c1)c1ccccc1Sc1ccc2c(/C=C/c3ccccn3)n[nH]c2c1	1.6 h
O=C(c1cccc(NC(=O)c2ccccn2)c1)c1ccc2c(/C=C/c3ccccn3)n[nH]c2c1	2.1 h
O=C(c1cccc(NC(=O)C2C[C@H]2c2ccccc2)c1)c1ccc2c(/C=C/c3ccccn3)n[nH]c2c1 (mixture of isomers)	3.1 h
O=C(Nc1cccc(C(=O)c2ccc3c(/C=C/c4ccccn4)n[nH]c3c2)c1)c1ccncc1	4.7 h
C[C@@H]1C[C@H]1C(=O)Nc1cccc(C(=O)c2ccc3c(/C=C/c4ccccn4)n[nH]c3c2)c1 (racemic)	1.2 h
CCNC(=O)c1ccccc1Sc1ccc2c(/C=C/c3ccccn3)n[nH]c2c1	3.2 h
O=C(Nc1cccc(Oc2ccc3c(/C=C/c4ccccn4)n[nH]c3c2)c1)c1ccccc1	2.4 h
O=C(Nc1nccs1)c1ccccc1Sc1ccc2c(/C=C/c3ccccn3)n[nH]c2c1	1.2 h
CCCNC(=O)c1ccccc1Sc1ccc2c(/C=C/c3ccccn3)n[nH]c2c1	1.4 h
O=C(Nc1ccccc1)c1ccccc1Sc1ccc2c(/C=C/c3ccccn3)n[nH]c2c1	1.2 h
O=C(NC1CC1)c1ccccc1Sc1ccc2c(/C=C/c3ccccn3)n[nH]c2c1	1 h
CCn1nc(C)cc1C(=O)Nc1cccc(Oc2ccc3c(/C=C/c4ccccn4)n[nH]c3c2)c1	5.3 h
CCn1nc(C)cc1C(=O)Nc1cc(C(=O)c2ccc3c(/C=C/c4ccccn4)n[nH]c3c2)ccc1C	4 h
O=C(NC1CCC1)c1ccccc1Sc1ccc2c(/C=C/c3ccccn3)n[nH]c2c1	3.2 h
C#CCNC(=O)c1ccccc1Sc1ccc2c(/C=C/c3ccccn3)n[nH]c2c1	1.4 h
Cc1cc(C(=O)Nc2cccc(Oc3ccc4c(/C=C/c5ccccn5)n[nH]c4c3)c2)nn1C	1.7 h
